meta.source: patent US12421205B2

- target: human GLP-1 receptor (Homo sapiens, UniProt P43220)
- Construct: host or cells: CHO-K1
- Sequence (P43220 24-463): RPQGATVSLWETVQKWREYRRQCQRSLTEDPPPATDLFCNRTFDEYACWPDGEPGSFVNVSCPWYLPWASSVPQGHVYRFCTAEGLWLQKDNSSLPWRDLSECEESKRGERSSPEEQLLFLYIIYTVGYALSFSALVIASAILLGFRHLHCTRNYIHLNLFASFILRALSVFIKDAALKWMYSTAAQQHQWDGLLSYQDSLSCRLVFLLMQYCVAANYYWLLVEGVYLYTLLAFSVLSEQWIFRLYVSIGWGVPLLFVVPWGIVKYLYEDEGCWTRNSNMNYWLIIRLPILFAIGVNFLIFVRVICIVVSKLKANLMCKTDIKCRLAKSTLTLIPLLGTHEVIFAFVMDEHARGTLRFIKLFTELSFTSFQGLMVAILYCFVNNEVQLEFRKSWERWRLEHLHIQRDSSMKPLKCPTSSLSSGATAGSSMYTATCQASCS
- testSummary: cAMP activity test (cAMP dynamic HTRF kit) in CHO-K1/GLP-1 receptor-expressing cells
- Assay type: cell-based
- conditionContext: cAMP activity, CHO-K1/GLP-1 receptor-expressing cells; read-out: EC50
pEC50: −log10 of the molar value.
Label Criterion not met if pEC50 falls below 8; label Criterion met in every other case.

Worked cases, answers included:
{"molecule": "O=C(O)c1ccc2nc(Cc3ccc(-c4cccc(OCc5ccc(Cl)cc5F)n4)cc3)n(CC3CCCO3)c2c1 (stereo not shown)", "target": "human GLP-1 receptor (Homo sapiens, UniProt P43220)", "label": "Criterion not met"}
{"molecule": "COCCn1c(Cc2ccc(-c3cccc(OCc4ccc(Cl)cc4F)n3)cc2F)nc2ccc(C(=O)O)cc21", "target": "human GLP-1 receptor (Homo sapiens, UniProt P43220)", "label": "Criterion not met"}
{"molecule": "O=C(O)c1ccc2nc(Cc3ccc(-c4cccc(OCc5ccc(Cl)cc5F)n4)c(F)c3F)n(C[C@@H]3CCO3)c2c1", "target": "human GLP-1 receptor (Homo sapiens, UniProt P43220)", "label": "Criterion met"}
{"molecule": "Cc1cccc(COc2cccc(-c3ccc(Cc4nc5ccc(C(=O)O)cc5n4CC4CCCO4)c(F)c3)n2)c1 (stereo not shown)", "target": "human GLP-1 receptor (Homo sapiens, UniProt P43220)", "label": "Criterion not met"}
{"molecule": "COCCn1c(Cc2ccc(-c3cccc(OCc4ccc(Cl)cc4F)n3)cc2C)nc2ccc(C(=O)O)cc21", "target": "human GLP-1 receptor (Homo sapiens, UniProt P43220)", "label": "Criterion not met"}

Task: I'd appreciate it if you could say whether O=C(O)c1ccc2nc(Cc3c(F)cc(-c4cccc(OCc5ccc(Cl)cc5F)n4)cc3F)n(CC3CCCO3)c2c1 (stereo not shown) has pEC50 at least equal to 8.
Output: Criterion met

###

- target: hERG (Homo sapiens, UniProt Q12809)
- Construct: purchased Invitrogen PV5365
- Sequence (Q12809 whole entry): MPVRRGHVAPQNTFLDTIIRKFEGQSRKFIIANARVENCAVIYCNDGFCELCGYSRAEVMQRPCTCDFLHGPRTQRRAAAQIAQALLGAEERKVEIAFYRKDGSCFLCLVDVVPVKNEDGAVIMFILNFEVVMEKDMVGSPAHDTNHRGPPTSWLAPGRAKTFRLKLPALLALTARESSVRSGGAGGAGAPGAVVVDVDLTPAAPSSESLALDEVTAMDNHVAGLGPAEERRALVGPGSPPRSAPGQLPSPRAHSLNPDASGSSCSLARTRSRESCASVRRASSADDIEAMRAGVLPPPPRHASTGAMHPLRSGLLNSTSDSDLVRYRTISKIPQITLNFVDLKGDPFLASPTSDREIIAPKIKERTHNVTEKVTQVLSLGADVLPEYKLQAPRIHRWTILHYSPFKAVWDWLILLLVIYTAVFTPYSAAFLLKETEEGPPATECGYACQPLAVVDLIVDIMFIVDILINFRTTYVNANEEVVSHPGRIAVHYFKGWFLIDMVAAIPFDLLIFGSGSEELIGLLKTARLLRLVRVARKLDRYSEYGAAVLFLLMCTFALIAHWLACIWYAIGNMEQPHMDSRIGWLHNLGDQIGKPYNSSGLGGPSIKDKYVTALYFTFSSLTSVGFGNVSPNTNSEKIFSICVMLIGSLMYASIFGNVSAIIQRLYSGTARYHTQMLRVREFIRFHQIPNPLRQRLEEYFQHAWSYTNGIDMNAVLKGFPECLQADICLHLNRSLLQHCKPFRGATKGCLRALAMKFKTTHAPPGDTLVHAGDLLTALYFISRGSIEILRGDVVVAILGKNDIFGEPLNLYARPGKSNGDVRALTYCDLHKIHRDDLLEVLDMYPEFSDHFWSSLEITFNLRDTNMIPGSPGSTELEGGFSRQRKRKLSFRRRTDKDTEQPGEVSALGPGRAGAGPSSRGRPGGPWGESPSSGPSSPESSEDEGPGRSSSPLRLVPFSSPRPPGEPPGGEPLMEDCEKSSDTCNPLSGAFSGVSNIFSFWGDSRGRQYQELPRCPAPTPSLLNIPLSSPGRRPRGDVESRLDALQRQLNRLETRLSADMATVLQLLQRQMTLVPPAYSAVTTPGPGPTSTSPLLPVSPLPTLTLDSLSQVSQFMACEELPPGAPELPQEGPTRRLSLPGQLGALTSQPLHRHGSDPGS
- testSummary: hERG inhibition test (Predictor hERG Fluorescence Polarization assay kit)
- Format: binding
- conditionContext: probe kit Tracer (fluorescent hERG ligand), hERG % inhibition at 10 uM, relative to E-4031 and solvent control
The entries below come with measured inhibition at 2.5 h, 10 µM values attached.
Report only the number, with the unit % understood.

Sample records with inhibition at 2.5 h, 10 µM:
{"compound": "O=C(O)c1ccc2nc(Cc3ccc(-c4cccc(OCc5ccc(Cl)cc5F)n4)c(F)c3)n(Cc3cnco3)c2c1 [Example 35]", "observedProperty": "inhibition at 2.5 h, 10 µM", "testValue": -3.82}
{"compound": "Cc1cc(-c2cccc(OCc3ccc(C#N)cc3F)n2)ccc1Cc1nc2ccc(C(=O)O)cc2n1CC1CCCO1 (stereo not shown) [Example 68]", "observedProperty": "inhibition at 2.5 h, 10 µM", "testValue": -11.4}
{"compound": "Cc1cc(Cc2nc3ccc(C(=O)O)cc3n2Cc2ccco2)ccc1-c1cccc(OCc2ccc(C#N)cc2F)n1 [Example 30]", "observedProperty": "inhibition at 2.5 h, 10 µM", "testValue": 0.33}

Task: Item under review: O=C(O)c1ccc2nc(Cc3ccc(-c4cccc(OCc5ccc(Br)cc5F)n4)cc3F)n(CC3CCCO3)c2c1 (stereo not shown) [Example 89] . Reported inhibition at 2.5 h, 10 µM?
Output: 22.1

Task: Same read-out for COc1cc(-c2cccc(OCc3ccc(C#N)cc3F)n2)ccc1Cc1nc2ccc(C(=O)O)cc2n1CC1CCCO1 (stereo not shown) [Example 64] ?
Output: -9.05

Task: Input O=C(O)c1ccc2nc(Cn3cc(-c4cccc(OCc5ccc(Cl)cc5F)n4)cn3)n(C[C@@H]3CCO3)c2c1 [Example 131]
Output: -0.97

Task: Here is the next compound: O=C(O)c1ccc2nc(Cc3ccc(-c4cccc(OCc5ccc(Cl)cc5F)c4)cc3F)n(CC3CCCO3)c2c1 (stereo not shown) [Example 16]
Output: -0.94

Task: Then what about the compound N#Cc1ccc(COc2cccc(-c3ccc(Cc4nc5ccc(C(=O)O)cc5n4C[C@@H]4CCO4)cc3F)n2)c(F)c1 [Example 74] ?
Output: -16.2

###

Quick list: inhibition at 2.5 h, 10 µM per entry.
- target: hERG (Homo sapiens)
- Construct: purchased Invitrogen PV5365
- testSummary: hERG inhibition test (Predictor hERG Fluorescence Polarization assay kit)
- Assay type: binding
- conditionContext: probe kit Tracer (fluorescent hERG ligand), hERG % inhibition at 10 uM, relative to E-4031 and solvent control
Just so you know, I need the unit written after the number.

{"compound": "O=C(O)c1ccc2nc(Cc3ccc(-c4cccc(OCc5ccc(Cl)cc5F)n4)cc3F)n(Cc3cnco3)c2c1", "inhibition at 2.5 h, 10 µM": "-12.6%"}
{"compound": "O=C(O)c1ccc2nc(Cc3ccc(-c4cccc(OCc5ccc([N+](=O)[O-])cc5)n4)cc3F)n(CC3CCCO3)c2c1 (stereo not shown)", "inhibition at 2.5 h, 10 µM": "22.1%"}
{"compound": "COCCn1c(Cc2ccc(-c3cccc(OCc4ccc(Cl)cc4F)n3)c(F)c2)nc2ccc(C(=O)O)cc21", "inhibition at 2.5 h, 10 µM": "22.8%"}

Task: Can you share its inhibition at 2.5 h, 10 µM? I mean this compound: O=C(O)c1ccc2nc(Cn3cnc(-c4cccc(OCc5ccc(Cl)cc5F)n4)cc3=O)n(CC3CCCO3)c2c1 (stereo not shown)
Output: 1.14%

Task: Item: O=C(O)c1ccc2nc(Cn3ccc(-c4cccc(OCc5ccc(Cl)cc5F)n4)cc3=O)n(CC3CCCO3)c2c1 (stereo not shown)
Output: 25.1%

Task: Field entry: O=C(O)c1ccc2nc(Cc3ccc(-c4cccc(OCc5ccc(Cl)c(F)c5)n4)c(F)c3)n(CC3CCCO3)c2c1 (stereo not shown)
Output: -0.33%

###

- target: hERG (Homo sapiens, UniProt Q12809)
- Construct: purchased Invitrogen PV5365
- testSummary: hERG inhibition test (Predictor hERG Fluorescence Polarization assay kit)
- Type: binding
- conditionContext: probe kit Tracer (fluorescent hERG ligand), hERG % inhibition at 10 uM, relative to E-4031 and solvent control
observedProperty: inhibition at 2.5 h, 10 µM (%)
Answer in %, number only, no unit symbol.

As a guide, the following entries are already answered.
{"compound": "O=C(O)c1ccc2nc(Cc3ccc(-c4cccc(OCC5CC5)n4)c(F)c3)n(C[C@@H]3CCO3)c2c1", "target": "hERG (Homo sapiens, UniProt Q12809)", "inhibition at 2.5 h, 10 µM (%)": -14}
{"compound": "O=C(O)c1ccc2nc(Cc3ccc(-c4cccc(COc5ccc(Cl)cc5F)n4)cc3F)n(C[C@H]3CCCO3)c2c1", "target": "hERG (Homo sapiens, UniProt Q12809)", "inhibition at 2.5 h, 10 µM (%)": 27.7}
{"compound": "O=C(O)c1ccc2nc(Cc3c(F)cc(-c4cccc(OCc5ccc(Cl)cc5F)n4)cc3F)n(C[C@@H]3CCO3)c2c1", "target": "hERG (Homo sapiens, UniProt Q12809)", "inhibition at 2.5 h, 10 µM (%)": -1.15}
{"compound": "O=C(O)c1ccc2nc(Cc3ccc(-c4cccc(OCc5c(F)cccc5Cl)n4)c(F)c3)n(C[C@@H]3CCO3)c2c1", "target": "hERG (Homo sapiens, UniProt Q12809)", "inhibition at 2.5 h, 10 µM (%)": -3.99}
{"compound": "COCCn1c(Cc2ccc(-c3cccc(OCc4ccc(Cl)cc4F)n3)c(C)c2)nc2ccc(C(=O)O)cc21", "target": "hERG (Homo sapiens, UniProt Q12809)", "inhibition at 2.5 h, 10 µM (%)": -2.87}

Task: I would be grateful if you could share the reported inhibition at 2.5 h, 10 µM for O=C(O)c1ccc2nc(Cc3ccc(-c4ccc(F)c(OCc5ccc(Cl)cc5F)c4)cn3)n(CC3CCCO3)c2c1 (centres unmarked) .
Output: -31.9

Task: Would you kindly repeat that for `O=C(O)c1ccc2nc(Cc3ccc(-c4cccc(OCc5ccncc5)n4)c(F)c3)n(C[C@@H]3CCO3)c2c1` ?
Output: -6.1

Task: Can you handle O=C(O)c1ccc2nc(Cn3ccc(-c4cccc(OCc5ccc(Cl)cc5F)n4)cc3=O)n(CC3CCO3)c2c1 (centres unmarked) next?
Output: 2.3

###

- target: human GLP-1 receptor (Homo sapiens, UniProt P43220)
- Construct: host or cells: CHO-K1
- testSummary: cAMP activity test (cAMP dynamic HTRF kit) in CHO-K1/GLP-1 receptor-expressing cells
- Format: cell-based
- conditionContext: cAMP activity, CHO-K1/GLP-1 receptor-expressing cells; read-out: EC50
# label = 1 (yes) if EC50 < 10 nM else 0 (no)

Below are worked cases with known answers.
{"compound": "O=C(O)c1ccc2nc(Cc3ccc(-c4cccc(OCc5ccncc5)n4)c(F)c3)n(C[C@@H]3CCO3)c2c1 [Example 128]", "target": "human GLP-1 receptor (Homo sapiens, UniProt P43220)", "label": "0 (no)"}
{"compound": "O=C(O)c1ccc2nc(Cc3ccc(-c4cccc(OCc5ccc(Cl)cc5F)n4)cc3F)n(Cc3cccs3)c2c1 [Example 49]", "target": "human GLP-1 receptor (Homo sapiens, UniProt P43220)", "label": "0 (no)"}
{"compound": "COc1cc(-c2cccc(OCc3ccc(C#N)cc3F)n2)ccc1Cc1nc2ccc(C(=O)O)cc2n1CC1CCCO1 (stereo not shown) [Example 64]", "target": "human GLP-1 receptor (Homo sapiens, UniProt P43220)", "label": "0 (no)"}

Task: is_below(EC50, 10 nM) for COCCn1c(Cc2ccc(-c3cccc(OCc4ccc(C#N)cc4F)c3)cc2)nc2ccc(C(=O)O)cc21 [Example 21] ?
Output: 0 (no)

Task: Same read-out for O=C(O)c1ccc2nc(Cc3ccc(-c4cccc(OCc5ccc(Cl)cc5F)n4)cc3F)n(Cc3cnco3)c2c1 [Example 34] ?
Output: 1 (yes)

Task: // next record Cc1cccc(COc2cccc(-c3ccc(Cc4nc5ccc(C(=O)O)cc5n4CC4CCCO4)cc3F)n2)c1 (stereo not shown) [Example 90]
Output: 0 (no)
